Give Emax for every item shown.
# ASSAY_TARGET: K18PL tau (Homo sapiens, UniProt P10636, P618L)
# Construct: (K18PL; amino acids 244-369); made in house
# Sequence (P10636 561-686 P618L): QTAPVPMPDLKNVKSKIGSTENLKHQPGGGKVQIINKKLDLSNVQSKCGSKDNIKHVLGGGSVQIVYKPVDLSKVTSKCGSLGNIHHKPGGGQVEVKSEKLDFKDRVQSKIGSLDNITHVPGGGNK
# PROTOCOL: K18PL tau centrifugation (sedimentation) assay, SDS-PAGE densitometry
# Format: biochemical
# CONDITION_LABEL: SDS-PAGE of soluble and insoluble fractions after centrifugation; read-out: K18PL Sed. Assay, maximal percent inhibition of K18PL fibrillization
Use % as the unit, but write only the number.

In plain terms, CC(C)OC(=O)c1nn(-c2ccc(Cl)cc2)c(=O)c2c(N)scc12 [CNDR-51371] has a documented Emax of 44

In plain terms, CC(C)NC(=O)c1nn(-c2ccc(Cl)cc2)c(=O)c2c(N)scc12 [CNDR-51349] has a documented Emax of 65

In plain terms, Nc1scc2c(C(=O)NC3CC3)nn(-c3ccc(Cl)cc3)c(=O)c12 [CNDR-51362] has a documented Emax of 69

In plain terms, CC(C)NC(=O)c1nn(-c2ccc(Br)cc2)c(=O)c2c(N)scc12 [CNDR-51390] has a documented Emax of 58

In plain terms, Nc1scc2c(C(=O)O)nn(-c3ccc(Cl)cc3)c(=O)c12 [CNDR-51348] has a documented Emax of 79
